System: Phosphorylation of ERK1/2 in MIA PaCa-2 cells
Assay: Phospho-ERK1/2 MSD assay in MIA PaCa-2 cells
Assay type: cell-based
Conditions: Homo sapiens, MIA PaCa-2, 4 h, read-out: p-ERK IC50 (4 h; MIA PaCa-2), 4 h compound treatment
pIC50: −log10 of the molar value.
experimental readout: pIC50

# structure smiles string, pIC50
data = [
    ("C=CC(=O)N1CCN(c2nc(=O)n(CC(C)(C)C)c3nc(-c4ccccc4F)c(Cl)cc23)CC1", 5.98),
    ("C=CC(=O)N1CCN(c2nc(=O)n(-c3ccccc3C(C)C)c3nc(Cl)c(Cl)cc23)[C@@H](C)C1", 6.00),
    ("C=CC(=O)N1CCN(c2nc(=O)n(C(C(C)C)C(C)C)c3nc(Cl)c(Cl)cc23)CC1", 4.97),
]

(I) C=CC(=O)N1CCN(c2nc(=O)n(C(CC)CC)c3nc(-c4ccccc4F)c(Cl)cc23)[C@@H](C)C1
(II) C=CC(=O)N1CCN(c2nc(=O)n(-c3c(CC)cccc3CC)c3nc(Cl)c(Cl)cc23)[C@@H](C)C1
Which gives the smaller pIC50 number: I or II ? Refer to your chosen entry by its label in the reply. I
(I: 4.25, II: 5.86)

(1) C=CC(=O)N1CCN(c2nc(=O)n(-c3c(C)cccc3C)c3nc(-c4c(O)cccc4F)c(Cl)cc23)CC1
(2) C=CC(=O)N1CCN(c2nc(=O)n(-c3ccccc3C(C)C)c3nc(N4CCCCC4)c(Cl)cc23)[C@@H](C)C1
Which gives the smaller pIC50 number: 1 or 2 ? Refer to your chosen entry by its label in the reply. 2

====

Target: GDP-bound KRAS protein (aa 1-169), containing both G12C and C118A amino acid substitutions (Homo sapiens, UniProt P01116, C118A/G12C)
Sequence (P01116 1-169 isoform P01116-2 G12C/C118A): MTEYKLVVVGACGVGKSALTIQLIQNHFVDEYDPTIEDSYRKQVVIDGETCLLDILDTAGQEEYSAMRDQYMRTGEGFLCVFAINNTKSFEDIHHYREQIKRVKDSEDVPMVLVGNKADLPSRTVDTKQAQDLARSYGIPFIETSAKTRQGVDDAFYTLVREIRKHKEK
Test: Coupled nucleotide exchange assay (SOS-mediated, AlphaScreen)
Assay type: biochemical
Details: 5 min compound pre-incubation
experimental readout: Coupled exchange IC50 (5 min)

Observe how each entry below is paired with its result.
# molecule, Coupled exchange IC50 (5 min)
data = [
    ("C=CC(=O)N1CCN(c2nc(=O)n(-c3c(C)ccnc3C(C)C)c3nc(-c4ccccc4F)c(C)nc23)[C@@H](C)C1 [Example 143]", "0.497 | nda μM"),
    ("C=CC(=O)N1CCN(c2nc(=O)n(-c3nccnc3C(C)C)c3nc(-c4c(O)cccc4F)c(F)cc23)[C@@H](C)C1 [Example 57-3]", "0.664 | nda μM"),
    ("C=CC(=O)N1CCN(c2nc(=O)n(-c3ccccc3S(F)(F)(F)(F)F)c3nc(-c4c(O)cccc4F)c(Cl)cc23)[C@@H](C)C1 (single isomer, unassigned) [Example 56-1-2]", "0.068 | nda μM"),
]

Which Coupled exchange IC50 (5 min) value belongs to C=CC(=O)N1CCN(c2nc(=O)n(-c3ccncc3C(C)C)c3nc(-c4c(O)cccc4F)c(Cl)cc23)[C@@H](C)C1 [Example 54-36] ? 0.149 | nda μM

Would you kindly repeat that for C=CC(=O)N1CCN(c2nc(=O)n(-c3ccccc3C(C)C)c3nc(-c4cc(OC(F)F)ccc4F)c(Cl)cc23)[C@@H](C)C1 (single isomer, unassigned) [Example 54-51-1] ? 0.108 | nda μM

Would you kindly repeat that for C=CC(=O)N1CCN(c2nc(=O)n(-c3ccccc3C(C)C)c3nc(-c4cc(F)ccc4O)c(Cl)cc23)[C@@H](C)C1 (single isomer, unassigned) [Example 54-78-2] ? 0.212 | nda μM

Would you kindly repeat that for C=CC(=O)N1CCN(c2nc(=O)n(-c3c(C4CC4)ncnc3C3CC3)c3nc(-c4c(O)cccc4F)c(F)cc23)[C@@H](C)C1 [Example 59-4] ? 0.133 | nda μM

Would you kindly repeat that for C=CC(=O)N1CCN(c2nc(=O)n(-c3ccccc3C3(C(F)(F)F)CC3)c3nc(-c4c(O)cccc4F)c(F)cc23)[C@@H](C)C1 (single isomer, unassigned) [Example 59-1-1] ? 11.8 | nda μM

Would you kindly repeat that for C=CC(=O)N1CCN(c2nc(=O)n(-c3c(C)ccnc3C(C)C)c3nc(-c4cc(F)c(F)cc4O)c(F)cc23)[C@@H](C)C1 (atropisomer, axis not shown; (M)) [Example 72-2] ? 0.534 | nda μM

Would you kindly repeat that for C=CC(=O)N1CCN(c2nc(=O)n(-c3ncnn3C(C)C)c3nc(-c4ccccc4F)c(Cl)cc23)[C@@H](C)C1 [Example 55-41] ? 0.292 | nda μM

Would you kindly repeat that for C=CC(=O)N1CCN(c2nc(=O)n(-c3c(C(C)C)ncnc3N(C)C)c3nc(-c4ccccc4F)c(Cl)cc23)[C@@H](C)C1 (single isomer, unassigned) [Example 140-1] ? 0.073 | nda μM

Would you kindly repeat that for C=CC(=O)N1CCN(c2nc(=O)n(-c3ccccc3C(C)C)c3nc(-c4cccs4)c(Cl)cc23)[C@@H](C)C1 (single isomer, unassigned) [Example 67-4-2] ? 1.91 | nda μM

Would you kindly repeat that for C=CC(=O)N1CCN(c2nc(=O)n(-c3c(C)cc(N(C)C)cc3C(C)C)c3nc(-c4ccccc4F)c(Cl)cc23)[C@@H](C)C1 [Example 55-16] ? 0.154 | nda μM

Would you kindly repeat that for C=CC(=O)N1CCN(c2nc(=O)n(-c3ccccc3C(C)C)c3nc(-c4c(F)cccc4C#N)c(Cl)cc23)[C@@H](C)C1 (single isomer, unassigned) [Example 98-1] ? 0.193 | nda μM

Would you kindly repeat that for C=CC(=O)N1CCN(c2nc(=O)c(-c3ccccc3C(C)C)c3cc(-c4ccccc4F)c(C)nn23)CC1 [Example 81-2] ? 14.1 | nda μM

Would you kindly repeat that for C=CC(=O)N1CCN(c2nc(=O)n(-c3c(CO)ccnc3C(C)C)c3nc(-c4ccccc4F)c(Cl)cc23)[C@@H](C)C1 (single isomer, unassigned) [Example 84-2] ? 0.058 | nda μM

Would you kindly repeat that for C=CC(=O)N1CCN(c2nc(=O)n(-c3ccccc3C(C)C)c3nc(-c4ccc[nH]4)c(Cl)cc23)[C@@H](C)C1 [Example 54-46] ? 7.24 | nda μM

Would you kindly repeat that for C=CC(=O)N1CCN(c2nc(=O)n(-c3c(C)cccc3C(C)C)c3nc(-c4c(O)cccc4F)c(F)cc23)C[C@@H]1C [Example 63-1] ? 2.15 | nda μM

Would you kindly repeat that for C=CC(=O)N1CCN(c2nc(=O)n(-c3c(C4CC4)ccnc3C)c3nc(-c4c(O)cccc4F)c(F)cc23)[C@@H](C)C1 [Example 58-19] ? 0.44 | nda μM

Would you kindly repeat that for C=CC(=O)N1CCN(c2nc(=O)n(-c3c(C)ncnc3C(C)C)c3nc(-c4ccccc4F)c(Cl)cc23)[C@@H](C)C1 [Example 55-13] ? 0.191 | nda μM

Would you kindly repeat that for C=CC(=O)N1CCN(c2nc(=O)n(-c3c(C(F)(F)F)ccnc3C(C)C)c3nc(-c4c(O)cccc4F)c(F)cc23)[C@@H](C)C1 (single isomer, unassigned) [Example 58-3-2] ? 0.485 | nda μM

Would you kindly repeat that for C=CC(=O)N1CCN(c2nc(=O)n(-c3c(C)ccnc3C(C)C)c3nc(-c4c(N)cccc4F)c(F)cc23)[C@@H](C)C1 (atropisomer, axis not shown; (M)) [Example 72-11] ? 0.039 | nda μM

Would you kindly repeat that for C=CC(=O)N1CCN(c2nc(=O)n(-c3ccccc3C(C)C)c3nc(C4=CCCCC4)c(Cl)cc23)[C@@H](C)C1 (single isomer, unassigned) [Example 54-75-1] ? 0.419 | nda μM
